Entries and their GI50 values follow.
Tested on: DMS-273
assay_protocol: NCI tumour cell line growth inhibition, 48 h
Active and inactive are the calls of the source. Rule as the data show it: active = GI50 up to about 1.1 µM and inactive = higher.

Worked set:
INSERT INTO results (molecule, observation_type, measured) VALUES
  ('CSc1snc2sc3c(Cl)nnnc3c12', 'GI50', '11.4 µM (inactive)'),
  ('CCC1(N=[N+]=[N-])C(=O)c2ccccc2N(C)C1=O (stereo unspecified)', 'GI50', '> 100 µM (inactive)'),
  ('O=C1CCC[C@]2(CCCC(=O)N2)C1', 'GI50', '> 100 µM (inactive)'),
  ('CCCCCCCCCCCC(=O)OCC1OC(n2cc(F)c(=O)[nH]c2=O)C(NC(=O)OCc2ccccc2)C(OC(=O)CCCCCCCCCCC)C1O (stereo unspecified)', 'GI50', '> 100 µM (inactive)'),
  ('O=C(O)CNc1cc(-c2ccccc2)nc(NCC(=O)O)n1', 'GI50', '> 100 µM (inactive)');

Query: Hello, please tell me recorded GI50 for this one: COc1ccc(NC(=O)CSc2nnc(-c3ccc(/N=C\c4ccc(Cl)cc4)cc3)o2)cc1
Result: 26.8 µM (inactive)

Query: Output GI50 of COc1ccc([Se]c2ccc(OC)cc2OC)c(OC)c1
Result: 3.85 µM (inactive)

Query: Report GI50, nothing else, for this molecule: c1ccc2c(c1)SP1Sc3ccccc3P21 (stereo unspecified)
Result: > 100 µM (inactive)

Query: Assign GI50 to the following record: O=C(Nc1cccc(Cc2cccc(NC(=O)c3ccccc3)c2)c1)c1ccccc1
Result: 55 µM (inactive)

Query: Please report GI50 for the following molecule: Cc1cccc(C(C)C)c1NC(=O)CC1Sc2ccccc2NC1=O (stereo unspecified)
Result: 45.8 µM (inactive)

Query: Please supply the value of reported GI50 for the item Cc1ccc2c(c1)C(=O)N(N(C)C)CC(=O)N2
Result: > 100 µM (inactive)

Reference for the values: ChEMBL document CHEMBL1201862
